target: Guanylate Cyclase-C (Homo sapiens, UniProt P25092); construct: host or cells: T84 cells; test: Stimulation of guanylate cyclase-C induced by the toxin STa in T84 cells (cGMP accumulation); type: cell-based; settings: T84, test compound 50 μM vs STa (1 μM) group; cGMP accumulation in T84 cells; read-out: % of inhibition (Compound x STa)
Sequence (P25092 24-1073): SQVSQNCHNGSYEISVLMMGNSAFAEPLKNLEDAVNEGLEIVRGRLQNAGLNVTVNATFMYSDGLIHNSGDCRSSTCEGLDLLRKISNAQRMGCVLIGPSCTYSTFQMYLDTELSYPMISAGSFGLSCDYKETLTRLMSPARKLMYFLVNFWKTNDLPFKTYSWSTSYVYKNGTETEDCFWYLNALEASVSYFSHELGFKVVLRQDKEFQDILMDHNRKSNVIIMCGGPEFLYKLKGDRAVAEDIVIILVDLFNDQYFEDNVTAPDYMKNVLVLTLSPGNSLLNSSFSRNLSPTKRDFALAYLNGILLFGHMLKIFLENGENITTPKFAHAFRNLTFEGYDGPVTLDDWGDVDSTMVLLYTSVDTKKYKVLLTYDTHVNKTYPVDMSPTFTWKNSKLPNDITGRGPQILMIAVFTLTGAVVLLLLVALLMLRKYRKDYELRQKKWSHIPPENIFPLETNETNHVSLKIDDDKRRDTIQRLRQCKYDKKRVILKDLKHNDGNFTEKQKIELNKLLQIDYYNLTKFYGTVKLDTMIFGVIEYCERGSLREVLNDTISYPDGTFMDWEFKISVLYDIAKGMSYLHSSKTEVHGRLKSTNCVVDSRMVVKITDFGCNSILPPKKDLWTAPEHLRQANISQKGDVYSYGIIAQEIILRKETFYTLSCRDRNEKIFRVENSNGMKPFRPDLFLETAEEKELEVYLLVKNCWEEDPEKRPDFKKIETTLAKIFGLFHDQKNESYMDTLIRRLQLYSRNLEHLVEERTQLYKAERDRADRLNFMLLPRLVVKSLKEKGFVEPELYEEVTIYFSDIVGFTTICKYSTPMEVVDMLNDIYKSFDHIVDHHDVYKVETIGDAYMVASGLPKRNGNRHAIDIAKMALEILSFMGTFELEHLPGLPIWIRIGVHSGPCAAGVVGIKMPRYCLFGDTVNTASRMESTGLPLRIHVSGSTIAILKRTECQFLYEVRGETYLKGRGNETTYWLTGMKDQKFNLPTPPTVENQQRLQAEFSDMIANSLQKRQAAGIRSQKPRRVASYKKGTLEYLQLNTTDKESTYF
QUANTITY_MEASURED: inhibition at 50 µM

Input line: Request: inhibition at 50 µM, test system Guanylate Cyclase-C (Homo sapiens, UniProt P25092), entry CCn1c2c(c(=O)n(C)c1=O)C(c1cc(F)cc(C(F)(F)F)c1)C1=C(N2)c2ccccc2C1=O (centres unmarked)
Output line: ~86%

Input line: Let us now turn to Cn1c2c(c(=O)n(C)c1=O)C(c1ccc3nsnc3c1)C1=C(N2)c2ccccc2C1=O (centres unmarked)
Output line: ~70%

Input line: Let us now turn to Cn1c2c(c(=O)n(C)c1=S)C(c1csc(C(F)(F)F)c1)C1=C(N2)c2ccccc2C1=O (centres unmarked)
Output line: ~94%

Input line: Let us now turn to Cn1c2c(c(=O)n(C)c1=O)C(c1cc(C(F)(F)F)cc(C(F)(F)F)c1)C1=C(N2)c2ccccc2C1=O (centres unmarked) [FPIPP, reference compound]
Output line: ~94%

Input line: Let us now turn to CCn1c2c(c(=O)n(C)c1=O)C(c1cc(C(F)(F)F)cc(C(F)(F)F)c1)C1=C(N2)c2ccccc2C1=O (centres unmarked)
Output line: ~97%
